Test system: LU99A
Experiment: relative viability (nuclei count vs DMSO), 5 days (fraction); higher = more cells survive
Conditions: first compound 0.3162 µM
measured_metric: relative viability
Field format: numeric only.

molecule="CCN(CC)CCCCNc1ncc2cc(-c3cc(OC)cc(OC)c3)c(NC(=O)NC(C)(C)C)nc2n1 + O=C(c1cc(Cc2n[nH]c(=O)c3ccccc23)ccc1F)N1CCN(C(=O)C2CC2)CC1 [Olaparib] (partner 8 µM)" assay_target=LU99A measured_metric="relative viability" numeric_readout=0.285

Report measured relative viability on LU99A; entry: O=c1cc(N2CCOCC2)oc2c(-c3cccc4c3sc3ccccc34)cccc12 + Nc1nc2[nH]cc(CCc3ccc(C(=O)N[C@@H](CCC(=O)O)C(=O)O)cc3)c2c(=O)[nH]1 [Pemetrexed] (partner 0.2 µM) 0.19

Report measured relative viability on LU99A; entry: CCN(CC)CCCCNc1ncc2cc(-c3cc(OC)cc(OC)c3)c(NC(=O)NC(C)(C)C)nc2n1 + CC(=O)Nc1cccc(-n2c(=O)n(C3CC3)c(=O)c3c(Nc4ccc(I)cc4F)n(C)c(=O)c(C)c32)c1 [Trametinib] (partner 0.02 µM) 0.6

Report measured relative viability on LU99A; entry: CCN(CC)CCCCNc1ncc2cc(-c3cc(OC)cc(OC)c3)c(NC(=O)NC(C)(C)C)nc2n1 + Cc1cc(Nc2cc(N3CCN(C)CC3)nc(Sc3ccc(NC(=O)C4CC4)cc3)n2)n[nH]1 [Tozasertib] (partner 0.1 µM) 0.269

Report measured relative viability on LU99A; entry: CCN(CC)CCCCNc1ncc2cc(-c3cc(OC)cc(OC)c3)c(NC(=O)NC(C)(C)C)nc2n1 + CC1(C)CCC(c2ccc(Cl)cc2)=C(CN2CCN(c3ccc(C(=O)NS(=O)(=O)c4ccc(N[C@H](CCN5CCOCC5)CSc5ccccc5)c(S(=O)(=O)C(F)(F)F)c4)cc3)CC2)C1 [Navitoclax] (partner 0.5 µM) 0.85

Report measured relative viability on LU99A; entry: O=c1cc(N2CCOCC2)oc2c(-c3cccc4c3sc3ccccc34)cccc12 + CS(=O)(=O)CCNCc1ccc(-c2ccc3ncnc(Nc4ccc(OCc5cccc(F)c5)c(Cl)c4)c3c2)o1 [Lapatinib] (partner 2 µM) 1.02

Report measured relative viability on LU99A; entry: O=c1cc(N2CCOCC2)oc2c(-c3cccc4c3sc3ccccc34)cccc12 + O=C(CCCCCCC(=O)Nc1ccccc1)NO [Vorinostat] (partner 1 µM) 0.512

Report measured relative viability on LU99A; entry: CCN(CC)CCCCNc1ncc2cc(-c3cc(OC)cc(OC)c3)c(NC(=O)NC(C)(C)C)nc2n1 + NC(=O)Nc1cc(-c2cccc(F)c2)sc1C(=O)N[C@H]1CCCNC1 [AZD7762] (partner 0.2 µM) 0.35

Report measured relative viability on LU99A; entry: CCN(CC)CCCCNc1ncc2cc(-c3cc(OC)cc(OC)c3)c(NC(=O)NC(C)(C)C)nc2n1 + CS(=O)(=O)N1CCN(Cc2cc3nc(-c4cccc5[nH]ncc45)nc(N4CCOCC4)c3s2)CC1 [Pictilisib] (partner 1 µM) 0.313

====

System: NCI-H2085
Experiment: relative viability (nuclei count vs DMSO), 5 days (fraction); higher = more cells survive
Conditions: first compound 8 µM
measured_metric: relative viability
Field format: numeric only.

Solved cases (4 shown):
compound="O=c1cc(-c2cccc3c2Sc2ccccc2S3)oc(N2CCOCC2)c1 + CC1(C)CCC(c2ccc(Cl)cc2)=C(CN2CCN(c3ccc(C(=O)NS(=O)(=O)c4ccc(N[C@H](CCN5CCOCC5)CSc5ccccc5)c(S(=O)(=O)C(F)(F)F)c4)cc3)CC2)C1 [Navitoclax] (partner 0.5 µM)" assay_target=NCI-H2085 numeric_readout=1.07
compound="O=c1cc(-c2cccc3c2Sc2ccccc2S3)oc(N2CCOCC2)c1 + Cc1cc(Nc2cc(N3CCN(C)CC3)nc(Sc3ccc(NC(=O)C4CC4)cc3)n2)n[nH]1 [Tozasertib] (partner 0.1 µM)" assay_target=NCI-H2085 numeric_readout=0.551
compound="O=c1cc(-c2cccc3c2Sc2ccccc2S3)oc(N2CCOCC2)c1 + N=C(N)NC(=N)NCCc1ccccc1 [Phenformin] (partner 250 µM)" assay_target=NCI-H2085 numeric_readout=0.576
compound="O=c1cc(-c2cccc3c2Sc2ccccc2S3)oc(N2CCOCC2)c1 + Nc1nc2[nH]cc(CCc3ccc(C(=O)N[C@@H](CCC(=O)O)C(=O)O)cc3)c2c(=O)[nH]1 [Pemetrexed] (partner 0.2 µM)" assay_target=NCI-H2085 numeric_readout=0.773

Input O=c1cc(-c2cccc3c2Sc2ccccc2S3)oc(N2CCOCC2)c1 + COc1cccc2cc(-c3nc([C@H]4CC[C@H](C(=O)O)CC4)n4ncnc(N)c34)[nH]c12 [OSI-027] (partner 0.5 µM) , output reported relative viability. 0.525

====

System: SW 1573
Assay: relative viability (nuclei count vs DMSO), 5 days (fraction); higher = more cells survive
Conditions: first compound 0.8 µM
measured_metric: relative viability
Field format: numeric only.

Solved cases (6 shown):
compound="O=c1cc(-c2cccc3c2Sc2ccccc2S3)oc(N2CCOCC2)c1 + Nc1nc2[nH]cc(CCc3ccc(C(=O)N[C@@H](CCC(=O)O)C(=O)O)cc3)c2c(=O)[nH]1 [Pemetrexed] (partner 0.2 µM)" numeric_readout=0.865
compound="COc1nc(C)cnc1NS(=O)(=O)c1cccnc1-c1ccc(-c2nnco2)cc1 [Zibotentan] + Nc1ncn([C@H]2C[C@H](O)[C@@H](CO)O2)c(=O)n1 [Decitabine] (partner 2 µM)" numeric_readout=0.702
compound="COc1nc(C)cnc1NS(=O)(=O)c1cccnc1-c1ccc(-c2nnco2)cc1 [Zibotentan] + O=C(c1cc(Cc2n[nH]c(=O)c3ccccc23)ccc1F)N1CCN(C(=O)C2CC2)CC1 [Olaparib] (partner 8 µM)" numeric_readout=0.544
compound="COc1nc(C)cnc1NS(=O)(=O)c1cccnc1-c1ccc(-c2nnco2)cc1 [Zibotentan] + COc1cccc2cc(-c3nc([C@H]4CC[C@H](C(=O)O)CC4)n4ncnc(N)c34)[nH]c12 [OSI-027] (partner 0.5 µM)" numeric_readout=0.699
compound="O=c1cc(-c2cccc3c2Sc2ccccc2S3)oc(N2CCOCC2)c1 + CC(=O)c1c(C)c2cnc(Nc3ccc(N4CCNCC4)cn3)nc2n(C2CCCC2)c1=O [Palbociclib] (partner 0.5 µM)" numeric_readout=0.448
compound="COc1nc(C)cnc1NS(=O)(=O)c1cccnc1-c1ccc(-c2nnco2)cc1 [Zibotentan] + Cc1cc(Nc2cc(N3CCN(C)CC3)nc(Sc3ccc(NC(=O)C4CC4)cc3)n2)n[nH]1 [Tozasertib] (partner 0.1 µM)" numeric_readout=0.257

Input COc1nc(C)cnc1NS(=O)(=O)c1cccnc1-c1ccc(-c2nnco2)cc1 [Zibotentan] + CCNC(=O)c1noc(-c2cc(C(C)C)c(O)cc2O)c1-c1ccc(CN2CCOCC2)cc1 [Luminespib] (partner 0.01 µM) , output reported relative viability. 0.348

Input COc1nc(C)cnc1NS(=O)(=O)c1cccnc1-c1ccc(-c2nnco2)cc1 [Zibotentan] + Cc1nc(NC(=O)N2CCC[C@H]2C(N)=O)sc1-c1ccnc(C(C)(C)C(F)(F)F)c1 [Alpelisib] (partner 2 µM) , output reported relative viability. 0.775

Input O=c1cc(-c2cccc3c2Sc2ccccc2S3)oc(N2CCOCC2)c1 + Nc1ncn([C@H]2C[C@H](O)[C@@H](CO)O2)c(=O)n1 [Decitabine] (partner 2 µM) , output reported relative viability. 0.598

Input COc1nc(C)cnc1NS(=O)(=O)c1cccnc1-c1ccc(-c2nnco2)cc1 [Zibotentan] + CS(=O)(=O)N1CCN(Cc2cc3nc(-c4cccc5[nH]ncc45)nc(N4CCOCC4)c3s2)CC1 [Pictilisib] (partner 1 µM) , output reported relative viability. 0.557

====

Test system: PC-14
Assay: relative viability (nuclei count vs DMSO), 5 days (fraction); higher = more cells survive
Conditions: first compound 0.6325 µM
// values below are reported relative viability
Field format: numeric only.

Solved cases (3 shown):
compound="COCC1(CO)C(=O)C2CCN1CC2 (stereo not given) [PRIMA-1MET] + O=C(c1cc(Cc2n[nH]c(=O)c3ccccc23)ccc1F)N1CCN(C(=O)C2CC2)CC1 [Olaparib] (partner 8 µM)" numeric_readout=0.208
compound="COCC1(CO)C(=O)C2CCN1CC2 (stereo not given) [PRIMA-1MET] + COc1cc2c(Oc3ccc(NC(=O)C4(C(=O)Nc5ccc(F)cc5)CC4)cc3F)ccnc2cc1OCCCN1CCOCC1 [Foretinib] (partner 0.25 µM)" numeric_readout=0.87
compound="COCC1(CO)C(=O)C2CCN1CC2 (stereo not given) [PRIMA-1MET] + COc1cccc2cc(-c3nc([C@H]4CC[C@H](C(=O)O)CC4)n4ncnc(N)c34)[nH]c12 [OSI-027] (partner 0.5 µM)" numeric_readout=0.779

Input COCC1(CO)C(=O)C2CCN1CC2 (stereo not given) [PRIMA-1MET] + CC(=O)c1c(C)c2cnc(Nc3ccc(N4CCNCC4)cn3)nc2n(C2CCCC2)c1=O [Palbociclib] (partner 0.5 µM) , output reported relative viability. 0.476

Input COCC1(CO)C(=O)C2CCN1CC2 (stereo not given) [PRIMA-1MET] + Cc1nc(Nc2ncc(C(=O)Nc3c(C)cccc3Cl)s2)cc(N2CCN(CCO)CC2)n1 [Dasatinib] (partner 0.075 µM) , output reported relative viability. 0.249
